Protein target, amino acids: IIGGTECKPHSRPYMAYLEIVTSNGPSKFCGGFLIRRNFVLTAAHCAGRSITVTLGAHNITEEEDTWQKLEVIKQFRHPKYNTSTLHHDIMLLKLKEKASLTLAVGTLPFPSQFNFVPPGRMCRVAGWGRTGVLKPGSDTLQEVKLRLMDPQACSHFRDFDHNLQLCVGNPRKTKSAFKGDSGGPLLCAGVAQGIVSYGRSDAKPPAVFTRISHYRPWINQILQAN
Observed property: Ki (nM)

Compound | Units label | Endpoint result
COC(=O)c1ccc2oc(C(=O)C(Cc3ccccc3)NC(=O)Cn3c(-c4ccc(F)cc4)ncc(N)c3=O)nc2c1 (stereo not shown) | nM | 23

These measurements were taken from patent US6528514B1.
